Listing: Kd of selected compounds
Target: Adenosine receptor A1 (Homo sapiens, UniProt P30542)
Experiment: Displacement of [3H]CCPA from human adenosine A1 receptor expressed in CHO cells
Type: cell-based
The answer is to be given in nM; state only the numeric part.

Sample records with Kd:
| Item smiles | System tested | Kd [nM] |
| --- | --- | --- |
| Nc1scc(CN2CCN(Cc3ccccc3)CC2)c1C(=O)c1ccc(Cl)cc1 | Adenosine receptor A1 (Homo sapiens, UniProt P30542) | 1.1 |
| Nc1scc(CN2CCN(c3ccccn3)CC2)c1C(=O)c1ccc(Cl)cc1 | Adenosine receptor A1 (Homo sapiens, UniProt P30542) | 1.2 |
| Nc1scc(CN2CCN(c3ccc(C(F)(F)F)cc3)CC2)c1C(=O)c1ccc(Cl)cc1 | Adenosine receptor A1 (Homo sapiens, UniProt P30542) | 1 |

Prompt: Suppose we examine the compound `N#Cc1ccc(N2CCN(Cc3csc(N)c3C(=O)c3ccc(Cl)cc3)CC2)cc1` ; what Kd value has been reported?
Completion: 1.1

Prompt: Next entry: `Cc1ccc(N2CCN(Cc3csc(N)c3C(=O)c3ccc(Cl)cc3)CC2)cc1`
Completion: 1

Prompt: Next entry: `Nc1scc(CN2CCN(C3CCCCC3)CC2)c1C(=O)c1ccc(Cl)cc1`
Completion: 1.1

Prompt: Next entry: `Nc1scc(CN2CCN(c3ccc(Cl)cc3)CC2)c1C(=O)c1ccc(Cl)cc1`
Completion: 1.1

Prompt: Next entry: `Nc1scc(CN2CCN(c3ncccn3)CC2)c1C(=O)c1ccc(Cl)cc1`
Completion: 1.1

* * *

Biological target: UniProt:P30542
Sequence (whole entry): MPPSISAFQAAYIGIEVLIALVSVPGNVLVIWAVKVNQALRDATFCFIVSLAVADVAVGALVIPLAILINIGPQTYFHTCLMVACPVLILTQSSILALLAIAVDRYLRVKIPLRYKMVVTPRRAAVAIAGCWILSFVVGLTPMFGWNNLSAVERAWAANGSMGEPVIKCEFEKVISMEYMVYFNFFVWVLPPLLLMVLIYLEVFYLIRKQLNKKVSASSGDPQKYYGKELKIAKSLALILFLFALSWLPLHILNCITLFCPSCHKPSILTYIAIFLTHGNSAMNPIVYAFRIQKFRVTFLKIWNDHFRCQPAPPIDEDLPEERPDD
Experiment: Activity at human recombinant adenosine A1 receptor expressed in CHO cells assessed as of cAMP level at 0.1 uM
Assay type: functional, cell-based
Listing: Activity of selected molecules
The answer is to be given in %; state only the numeric part.

Sample records with Activity:
| Item smiles | System tested | Activity [%] |
| --- | --- | --- |
| Nc1scc(CN2CCN(c3ccccc3)CC2)c1C(=O)c1ccc(Cl)cc1 | UniProt:P30542 | 26 |
| Nc1scc(CN2CCN(c3ccccn3)CC2)c1C(=O)c1ccc(Cl)cc1 | UniProt:P30542 | 5 |
| Nc1scc(CN2CCN(c3ccc4c(c3)OCO4)CC2)c1C(=O)c1ccc(Cl)cc1 | UniProt:P30542 | 13 |
| CN1CCN(Cc2csc(N)c2C(=O)c2ccc(Cl)cc2)CC1 | UniProt:P30542 | 3 |

Prompt: Hi! What's the reported Activity for `Nc1scc(CN2CCN(c3ccc(Cl)cc3)CC2)c1C(=O)c1ccc(Cl)cc1` on UniProt:P30542?
Completion: 48

* * *

Molecular target: Adenosine receptor A1 (Homo sapiens) (UniProt P30542)
Sequence (whole entry): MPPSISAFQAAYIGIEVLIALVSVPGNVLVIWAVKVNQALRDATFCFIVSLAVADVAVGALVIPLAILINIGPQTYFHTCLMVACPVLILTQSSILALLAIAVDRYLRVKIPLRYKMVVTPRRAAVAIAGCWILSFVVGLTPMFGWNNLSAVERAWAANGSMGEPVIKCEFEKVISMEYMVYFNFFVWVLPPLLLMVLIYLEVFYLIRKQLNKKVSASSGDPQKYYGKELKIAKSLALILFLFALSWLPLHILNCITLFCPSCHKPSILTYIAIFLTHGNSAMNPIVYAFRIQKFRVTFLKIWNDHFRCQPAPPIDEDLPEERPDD
Assay: Activity at human recombinant adenosine A1 receptor expressed in CHO cells assessed as of cAMP level at 0.1 uM
Format: functional, cell-based
Quantity name: Activity (%)
The answer is to be given in %; state only the numeric part.

Sample records with Activity:
| Item smiles | Assay value |
| --- | --- |
| Nc1scc(CN2CCN(c3ccc(C(F)(F)F)cc3)CC2)c1C(=O)c1ccc(Cl)cc1 | 53 |
| N#Cc1ccc(N2CCN(Cc3csc(N)c3C(=O)c3ccc(Cl)cc3)CC2)cc1 | 8 |
| Cc1sc(N)c(C(=O)c2cccc(C(F)(F)F)c2)c1C | 3 |
| Nc1scc(CN2CCN(Cc3ccccc3)CC2)c1C(=O)c1ccc(Cl)cc1 | 4 |
| Cc1ccc(N2CCN(Cc3csc(N)c3C(=O)c3ccc(Cl)cc3)CC2)cc1 | 3 |

Prompt: Hi! What's the reported Activity for `Nc1scc(CN2CCN(c3ncccn3)CC2)c1C(=O)c1ccc(Cl)cc1` on Adenosine receptor A1 (Homo sapiens) (UniProt P30542)?
Completion: 3

Prompt: Next entry: `Nc1scc(CN2CCN(c3ccc(F)cc3)CC2)c1C(=O)c1ccc(Cl)cc1`
Completion: 19

Prompt: Next entry: `Nc1scc(CN2CCN(C3CCCCC3)CC2)c1C(=O)c1ccc(Cl)cc1`
Completion: 3

* * *

Listing: Activity of selected compounds
Target: UniProt P0DMS8
Sequence (P0DMS8 whole entry): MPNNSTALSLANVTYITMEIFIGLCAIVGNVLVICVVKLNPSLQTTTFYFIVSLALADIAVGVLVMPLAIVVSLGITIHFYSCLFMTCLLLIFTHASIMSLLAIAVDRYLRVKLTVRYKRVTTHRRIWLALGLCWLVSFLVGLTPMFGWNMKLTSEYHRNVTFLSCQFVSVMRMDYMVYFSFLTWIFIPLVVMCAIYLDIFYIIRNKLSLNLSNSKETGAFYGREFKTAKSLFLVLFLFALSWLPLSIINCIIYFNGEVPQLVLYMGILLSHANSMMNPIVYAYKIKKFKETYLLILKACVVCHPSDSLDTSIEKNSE
Test: Displacement of [3H]MRE3008F20 from human adenosine A3 receptor expressed in CHO cells at 10 uM
Type: cell-based

| Item smiles | Activity |
| --- | --- |
| Nc1scc(CN2CCN(c3ncccn3)CC2)c1C(=O)c1ccc(Cl)cc1 | 0% |
| Nc1scc(CN2CCN(c3ccc4c(c3)OCO4)CC2)c1C(=O)c1ccc(Cl)cc1 | 0% |
| Nc1scc(CN2CCN(c3ccccc3)CC2)c1C(=O)c1ccc(Cl)cc1 | 0% |
| Nc1scc(CN2CCN(c3ccc(C(F)(F)F)cc3)CC2)c1C(=O)c1ccc(Cl)cc1 | 15% |
| Nc1scc(CN2CCN(Cc3ccccc3)CC2)c1C(=O)c1ccc(Cl)cc1 | 0% |

Prompt: Suppose we examine the compound `Nc1scc(CN2CCN(c3ccc(F)cc3)CC2)c1C(=O)c1ccc(Cl)cc1` ; what Activity value has been reported?
Completion: 17%

Prompt: Next entry: `Nc1scc(CN2CCN(c3ccccn3)CC2)c1C(=O)c1ccc(Cl)cc1`
Completion: 0%

Prompt: Next entry: `N#Cc1ccc(N2CCN(Cc3csc(N)c3C(=O)c3ccc(Cl)cc3)CC2)cc1`
Completion: 20%

Prompt: Next entry: `Nc1scc(CN2CCN(C3CCCCC3)CC2)c1C(=O)c1ccc(Cl)cc1`
Completion: 5%

Prompt: Next entry: `Cc1ccc(N2CCN(Cc3csc(N)c3C(=O)c3ccc(Cl)cc3)CC2)cc1`
Completion: 0%

* * *

Listing: Activity of selected compounds
Biological target: UniProtKB P30542
Assay: Activity at human recombinant adenosine A1 receptor expressed in CHO cells assessed as cAMP level at 1 uM
Type: functional, cell-based
Could you kindly put the unit after your number?

Sample records with Activity:
| Item smiles | Activity |
| --- | --- |
| Nc1scc(CN2CCN(c3ccccc3)CC2)c1C(=O)c1ccc(Cl)cc1 | 62% |
| Nc1scc(CN2CCN(c3ccc(C(F)(F)F)cc3)CC2)c1C(=O)c1ccc(Cl)cc1 | 84% |
| Cc1ccc(N2CCN(Cc3csc(N)c3C(=O)c3ccc(Cl)cc3)CC2)cc1 | 22% |

Would you kindly look at the next entry?
Prompt: Hi! What's the reported Activity for `Cc1sc(N)c(C(=O)c2cccc(C(F)(F)F)c2)c1C` on UniProtKB P30542?
Completion: 31%

* * *

Biological target: Adenosine receptor A1 (Homo sapiens)
Assay: Displacement of [3H]CCPA from human adenosine A1 receptor expressed in CHO cells
Format: cell-based
Quantity name: pKd
In simple prose, pKd is minus the logarithm base ten of a concentration in moles per litre.

Sample records with pKd:
| Item smiles | System tested | Quantity name | Assay value |
| --- | --- | --- | --- |
| CN1CCN(Cc2csc(N)c2C(=O)c2ccc(Cl)cc2)CC1 | Adenosine receptor A1 (Homo sapiens) | pKd | 8.92 |
| Nc1scc(CN2CCN(c3ccc4c(c3)OCO4)CC2)c1C(=O)c1ccc(Cl)cc1 | Adenosine receptor A1 (Homo sapiens) | pKd | 8.96 |
| Nc1scc(CN2CCN(c3ccc(F)cc3)CC2)c1C(=O)c1ccc(Cl)cc1 | Adenosine receptor A1 (Homo sapiens) | pKd | 9.00 |

Would you kindly look at the next entry?
Prompt: Suppose we examine the molecule `Nc1scc(CN2CCN(c3ccccc3)CC2)c1C(=O)c1ccc(Cl)cc1` ; what pKd value has been reported?
Completion: 9.00
